# System: IL-6
# assay.notes: IL-6 in supernatants of LPS-primed, nigericin-treated THP1 macrophages, Hu IL-6 AlphaLISA
# Assay type: cell-based
# recorded.conditions: Homo sapiens, THP-1, PMA-differentiated, 1 hr compound, Nigericin 6.7 uM 3 hrs, IL-6 in supernatant
# reported IC50; entries follow

CN1CCC[C@@H](N(C)c2nnc(-c3ccc(C(F)(F)F)cc3)c3ncn(C)c23)C1    ≥ 10 µM
CN1CCC[C@@H](N(C)c2nnc(-c3ccc(C(F)(F)F)cc3)c3ccn(C)c23)C1    ≥ 10 µM
Cc1cc(C(F)(F)F)cnc1-c1nnc(N[C@@H]2CCCN(C)C2)c2c1cnn2C    ≥ 10 µM
CN1CCC[C@@H](Nc2nnc(-c3ccc(Cl)cc3C(F)F)c3cnn(C)c23)C1    ≥ 10 µM

# return IC50 of "CN1CCC[C@@H](Nc2nnc(-c3ccc(C#N)cc3O)c3c2cnn3C)C1" (system: IL-6)
≥ 10 µM

# return IC50 of "CN1CCC[C@@H](N(C)c2nnc(-c3ccc(C#N)cc3)c3ccn(C)c23)C1" (system: IL-6)
≥ 10 µM

# return IC50 of "Cc1cc(C(F)(F)F)ccc1-c1nnc(N[C@@H]2CCCN(C)C2)c2c1ccn2C" (system: IL-6)
1 to 5 µM
